inhibition at 10 µM values for the molecules below.
- Target Of Assay: VIM-2 (Escherichia coli, UniProt Q5U7L7)
- Construct: Li's Laboratory, Sichuan University (collaborator, a gift and not a purchase)
- Assay Notes: VIM-2 inhibition assay (FC5 fluorogenic substrate)
- Type: biochemical
- Measurement Context: @ 10 μM; mean ± SD (n = 3)
Response body: numeric value in %, unit text excluded.

The following molecules have reported results that may help.
# Molecule, Recorded Number
records = [
    ("c1csc(-c2nnc3n2CCCS3)c1 [10b]", 16),
    ("Ic1ccc(-c2nnc3n2CCCS3)cc1", 44),
]

Short answer for c1coc(-c2nnc3n2CCCS3)c1 [10a] : inhibition at 10 µM was 22
